# Test system: HCT-116
# PROTOCOL_DETAILS: NCI tumour cell line growth inhibition, 48 h
The source made the active and inactive calls. Cut-off read from the data, not from the text of the source: active = GI50 up to about 1.1 µM and inactive = higher.
Below is a list of entries, each paired with its recorded GI50 value.

Guide cases for GI50, answers given:
{"COMPOUND": "CC(=O)O[C@H]1CC[C@@]2(C)C(=C/C(=N\\[N+](=O)[O-])[C@H]3C4CCC([C@H](C)CCCC(C)C)[C@@]4(C)CCC32)C1 (stereo not given in full)", "SYSTEM": "HCT-116", "GI50": "> 100 µM (inactive)"}
{"COMPOUND": "CC1S/C(=N\\N=C2/C(=O)Nc3ccc(Br)cc32)N(C2CCCCC2)C1=O (stereo not given)", "SYSTEM": "HCT-116", "GI50": "2.24 µM (inactive)"}
{"COMPOUND": "[N-]=[N+]=Nc1ccc(CCN2CCN(c3cccc(C(F)(F)F)c3)CC2)cc1I", "SYSTEM": "HCT-116", "GI50": "71.1 µM (inactive)"}
{"COMPOUND": "C=CCn1c(=O)c(C)cn(/C(=C/C(=O)OCC)C(=O)OCC)c1=O", "SYSTEM": "HCT-116", "GI50": "9.62 µM (inactive)"}

Then this compound:
State GI50 (HCT-116) of `COc1ccc2nc(N/N=C/c3sccc3C)cc(C)c2c1` .
11.6 µM (inactive)

====

# System: 786-0
# PROTOCOL_DETAILS: NCI tumour cell line growth inhibition, 48 h
Active and inactive are the calls of the source. Rule as the data show it: active = GI50 up to about 1.1 µM and inactive = higher.
MEASURED_METRIC: GI50

{"CHEM_SMILES": "Cn1nc(-c2ccccc2)c(C(=O)/C=C/c2ccccc2)c(N2CCCCC2)c1=O", "SYSTEM": "786-0", "GI50": "12.5 µM (inactive)"}
{"CHEM_SMILES": "CCCCCCCCCCCCCCCCCCNC(=S)N/C=C1\\C(=O)Nc2ccccc2C1=O", "SYSTEM": "786-0", "GI50": "15.6 µM (inactive)"}

Then this compound:
Specify GI50 for `O=CN1CCN(C(=O)c2ccc(Cl)cc2)C1=S` and stop.
6.79 µM (inactive)

====

Below is a list of entries, each paired with its recorded GI50 value.
# Test system: RPMI-8226
# PROTOCOL_DETAILS: NCI tumour cell line growth inhibition, 48 h
Activity calls are given as the source filed them. Rule as the data show it: active = GI50 up to about 1.1 µM and inactive = higher.

{"COMPOUND": "Cc1csc(=S)n1OC(=O)NC1CCCCC1", "MEASURED_METRIC": "GI50", "VAL": "23.6 µM (inactive)"}
{"COMPOUND": "CCN(CC)CCN(C(=O)c1ccc(F)cc1)c1ccccc1N", "MEASURED_METRIC": "GI50", "VAL": "> 10 µM (inactive)"}
{"COMPOUND": "Cc1cc(Cl)nc2nc(Cl)c(N)cc12", "MEASURED_METRIC": "GI50", "VAL": "2.26 µM (inactive)"}
{"COMPOUND": "CC(C)(CN1CCCCC1)C(=O)CC(SCCS(=O)(=O)O)c1ccc(Cl)cc1 (stereo not drawn)", "MEASURED_METRIC": "GI50", "VAL": "3.31 µM (inactive)"}
{"COMPOUND": "CC(=O)OC1COC(Nc2nc(NCc3ccccc3)n(C)c(=O)c2N=O)C(OC(C)=O)C1OC(C)=O (stereo not drawn)", "MEASURED_METRIC": "GI50", "VAL": "> 10 µM (inactive)"}
{"COMPOUND": "CCOC(=O)NC(=O)c1cn(C2OC(COC(=O)CCCCCCCCC(=O)OCC3OC(n4cc(C(=O)NC(=O)OCC)c(=O)[nH]c4=O)C4OC(C)(C)OC34)C3OC(C)(C)OC32)c(=O)[nH]c1=O (stereo not drawn)", "MEASURED_METRIC": "GI50", "VAL": "44 µM (inactive)"}
{"COMPOUND": "Cc1c(C)c2c(c(N)c1C#N)C(=O)N(OS(=O)(=O)c1ccccc1)C2=O", "MEASURED_METRIC": "GI50", "VAL": "15.1 µM (inactive)"}

Then this compound:
Specify GI50 for `N#CC(C#N)=C1C(=Cc2ccc(OCCCCCCCCCCSSCCCCCCCCCCOc3ccc(C=C4C(=C(C#N)C#N)c5ccccc5C4=C(C#N)C#N)cc3)cc2)C(=C(C#N)C#N)c2ccccc21` and stop.
39.2 µM (inactive)

Attribution: ChEMBL document CHEMBL1201862
